# assay-info: Cell Viability - LYMP2-016 (AID 984);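 further: cells exposed to compound for 24 hours at 37 °C; nearly all actives have a fitted effect of over 55% in size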
# details: LYMP2-016 lymphoblastoid cell viability, qHTS; series mostly up to 92.2 µM
Results filed as inconclusive are left out. Calls of active or inactive are those of the source. The call rests on the fitted dose curve; in most records, active means well fitted cell-killing curve with a large enough effect; inconclusive means small, poorly fitted or top-dose-only effect; inactive means flat fitted curve, though single readings scatter.
Classes used: YES = active, NO = inactive

[
  {
    "compound": "O=C(NO)c1ccccc1",
    "class": "NO"
  },
  {
    "compound": "OCc1c[nH]c2ccccc12",
    "class": "NO"
  },
  {
    "compound": "c1ccc2occc2c1",
    "class": "NO"
  },
  {
    "compound": "CC(C)(c1ccc(O)cc1)c1ccc(O)cc1",
    "class": "NO"
  },
  {
    "compound": "O=C(c1ccccc1)c1ccccc1",
    "class": "NO"
  },
  {
    "compound": "CC(C)(C)c1ccc(O)c(O)c1",
    "class": "YES"
  },
  {
    "compound": "C1=CC2C3C=CC(C3)C2C1 (centres undefined)",
    "class": "NO"
  },
  {
    "compound": "Cc1cc(C(C)(C)C)c(O)c(C(C)(C)C)c1",
    "class": "NO"
  },
  {
    "compound": "CCCC(=O)c1cc(O)c(O)cc1O",
    "class": "NO"
  }
]
